pIC50 values for the molecules below.
test-system: PBP1a/1b (Bacillus subtilis, UniProt P39793)
Sequence (P39793 77-662): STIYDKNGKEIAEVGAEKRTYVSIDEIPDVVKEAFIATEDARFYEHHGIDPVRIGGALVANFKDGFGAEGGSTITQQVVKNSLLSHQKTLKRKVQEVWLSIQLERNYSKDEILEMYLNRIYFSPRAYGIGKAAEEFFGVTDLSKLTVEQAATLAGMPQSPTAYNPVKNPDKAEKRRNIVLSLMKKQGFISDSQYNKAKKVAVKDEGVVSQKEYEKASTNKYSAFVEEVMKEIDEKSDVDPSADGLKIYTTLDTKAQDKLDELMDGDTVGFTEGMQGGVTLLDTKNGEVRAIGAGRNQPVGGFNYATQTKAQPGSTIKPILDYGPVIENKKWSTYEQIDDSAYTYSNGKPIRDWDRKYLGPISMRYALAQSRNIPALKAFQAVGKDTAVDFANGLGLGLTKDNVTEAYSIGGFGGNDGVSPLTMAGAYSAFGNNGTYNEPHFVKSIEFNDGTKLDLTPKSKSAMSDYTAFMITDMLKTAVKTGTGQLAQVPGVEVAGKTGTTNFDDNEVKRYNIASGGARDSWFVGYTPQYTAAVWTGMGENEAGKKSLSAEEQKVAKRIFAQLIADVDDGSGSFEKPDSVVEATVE
experiment: Fluorescent whole cell β-lactam titration with Boc-FL readout, SDS-PAGE
Format: cell-based
pIC50: −log10 of the molar value.

| molecular-string | pIC50 |
| --- | --- |
| Cc1onc(-c2ccccc2)c1C(=O)N[C@@H]1C(=O)N2[C@@H]1SC(C)(C)[C@@H]2C(=O)O | < 2.60 |
| CC(=O)OCC1=C(C(=O)O)N2C(=O)[C@@H](NC(=O)Cc3cccs3)[C@H]2SC1 | 8.18 |
| CC1(C)S[C@@H]2[C@H](/N=C/N3CCCCCC3)C(=O)N2[C@H]1C(=O)O | < 2.51 |
| CC1(C)S[C@@H]2[C@H](N)C(=O)N2[C@H]1C(=O)O | < 2.33 |

###

test-system: PBP5 (Bacillus subtilis, UniProt P08750)
Sequence (P08750 32-443): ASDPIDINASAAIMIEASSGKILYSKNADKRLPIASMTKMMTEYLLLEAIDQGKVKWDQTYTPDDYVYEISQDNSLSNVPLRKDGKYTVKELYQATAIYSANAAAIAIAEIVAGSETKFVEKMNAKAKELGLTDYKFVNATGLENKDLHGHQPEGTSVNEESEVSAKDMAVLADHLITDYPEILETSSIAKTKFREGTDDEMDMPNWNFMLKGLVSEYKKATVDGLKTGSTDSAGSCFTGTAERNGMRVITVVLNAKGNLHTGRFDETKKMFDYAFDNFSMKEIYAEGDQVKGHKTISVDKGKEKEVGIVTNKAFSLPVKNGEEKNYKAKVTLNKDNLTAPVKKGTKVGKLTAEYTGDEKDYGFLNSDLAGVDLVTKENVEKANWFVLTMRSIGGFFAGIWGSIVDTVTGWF
experiment: Fluorescent whole cell β-lactam titration with Boc-FL readout, SDS-PAGE

| molecular-string | measurement-unit | operator-symbol | IC50 |
| --- | --- | --- | --- |
| CCN1CCN(C(=O)N[C@@H](C(=O)N[C@@H]2C(=O)N3[C@@H]2SC(C)(C)[C@@H]3C(=O)O)c2ccccc2)C(=O)C1=O | µM | = | 21.8 |
| C[C@@H](O)[C@H]1C(=O)N2C(C(=O)O)=C(S[C@@H]3CN[C@H](CNS(N)(=O)=O)C3)[C@H](C)[C@H]12 | µM | = | 0.547 |
| CO/N=C(\C(=O)N[C@@H]1C(=O)N2C(C(=O)O)=C(CSc3nc(=O)c(=O)[nH]n3C)CS[C@H]12)c1csc(N)n1 | µM | > | 1800 |
| CC1(C)S[C@@H]2[C@H](N)C(=O)N2[C@H]1C(=O)O | µM | = | 19 |

###

test-system: PBP3 (Bacillus subtilis)
Sequence (P42971 whole entry): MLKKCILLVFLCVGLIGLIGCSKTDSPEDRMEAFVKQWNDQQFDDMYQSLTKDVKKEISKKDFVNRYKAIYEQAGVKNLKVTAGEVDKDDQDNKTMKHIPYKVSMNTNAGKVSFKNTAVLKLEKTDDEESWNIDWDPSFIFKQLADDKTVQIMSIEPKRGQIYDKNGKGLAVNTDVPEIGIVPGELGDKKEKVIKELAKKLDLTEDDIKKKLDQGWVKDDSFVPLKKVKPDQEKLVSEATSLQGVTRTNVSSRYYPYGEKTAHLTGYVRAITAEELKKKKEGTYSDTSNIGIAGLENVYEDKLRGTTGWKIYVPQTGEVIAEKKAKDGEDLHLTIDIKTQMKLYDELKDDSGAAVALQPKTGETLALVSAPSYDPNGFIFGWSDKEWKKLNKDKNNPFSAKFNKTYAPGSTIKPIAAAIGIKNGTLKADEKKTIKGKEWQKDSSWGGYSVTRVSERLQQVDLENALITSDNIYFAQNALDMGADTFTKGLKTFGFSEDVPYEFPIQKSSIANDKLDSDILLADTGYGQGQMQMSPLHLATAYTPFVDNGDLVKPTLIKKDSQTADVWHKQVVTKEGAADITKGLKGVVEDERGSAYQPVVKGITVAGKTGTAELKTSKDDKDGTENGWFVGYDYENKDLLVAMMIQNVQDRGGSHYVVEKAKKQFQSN
experiment: Fluorescent whole cell β-lactam titration with Boc-FL readout, SDS-PAGE
Assay type: cell-based
setup-conditions: read-out: IC50 PBP3; B. subtilis PY79 whole cells; average of two experiments
pIC50: −log10 of the molar value.

| compound | test-system | pIC50 |
| --- | --- | --- |
| Cc1onc(-c2ccccc2Cl)c1C(=O)N[C@@H]1C(=O)N2[C@@H]1SC(C)(C)[C@@H]2C(=O)O [cloxacillin] | PBP3 (Bacillus subtilis) | > 2.64 |

###

Here's what we have: MIC numbers for B. subtilis PY79.

| molecular-string | MIC [mg/L] |
| --- | --- |
| Cc1onc(-c2ccccc2)c1C(=O)N[C@@H]1C(=O)N2[C@@H]1SC(C)(C)[C@@H]2C(=O)O | 0.25 |
| COc1cccc(OC)c1C(=O)N[C@@H]1C(=O)N2[C@@H]1SC(C)(C)[C@@H]2C(=O)O | 0.25 |
| CC1(C)S[C@@H]2[C@H](NC(=O)COc3ccccc3)C(=O)N2[C@H]1C(=O)O | 32 |
| CC1(C)S[C@@H]2[C@H](NC(=O)[C@H](N)c3ccccc3)C(=O)N2[C@H]1C(=O)O | 8 |

###

test-system: UniProt:P54488
experiment: Fluorescent whole cell β-lactam titration with Boc-FL readout, SDS-PAGE
Type: cell-based
setup-conditions: read-out: IC50 PBP2a; B. subtilis PY79 whole cells; average of two experiments
IC50 values for the compounds below.

| molecular-string | IC50 |
| --- | --- |
| C[C@@H](O)[C@H]1C(=O)N2C(C(=O)O)=C(S[C@@H]3CN[C@H](CNS(N)(=O)=O)C3)[C@H](C)[C@H]12 | < 2380 µM |
| C[C@@H](O)[C@H]1C(=O)N2C(C(=O)O)=C(S[C@@H]3CN[C@H](C(=O)N(C)C)C3)[C@H](C)[C@H]12 | < 2610 µM |
| CO/N=C(\C(=O)N[C@@H]1C(=O)N2C(C(=O)O)=C(COC(C)=O)CS[C@H]12)c1csc(N)n1 | < 220 µM |

###

IC50 values for the compounds below.
test-system: PBP1a/1b (Bacillus subtilis)
experiment: Fluorescent whole cell β-lactam titration with Boc-FL readout, SDS-PAGE
measured-attribute: IC50

| molecular-string | test-system | result |
| --- | --- | --- |
| C[C@@H](O)[C@H]1C(=O)N2C(C(=O)O)=C([C@H]3CCCO3)S[C@H]12 | PBP1a/1b (Bacillus subtilis) | 0.00207 µM |
| CC1(C)S[C@@H]2[C@H](NC(=O)[C@H](N)c3ccc(O)cc3)C(=O)N2[C@H]1C(=O)O | PBP1a/1b (Bacillus subtilis) | 0.00274 µM |
| CCN1CCN(C(=O)N[C@@H](C(=O)N[C@@H]2C(=O)N3[C@@H]2SC(C)(C)[C@@H]3C(=O)O)c2ccccc2)C(=O)C1=O | PBP1a/1b (Bacillus subtilis) | 0.00232 µM |
| C[C@@H](O)[C@H]1C(=O)N2C(C(=O)O)=C(S[C@@H]3CN[C@H](C(=O)N(C)C)C3)[C@H](C)[C@H]12 | PBP1a/1b (Bacillus subtilis) | > 2610 µM |
| COc1cccc(OC)c1C(=O)N[C@@H]1C(=O)N2[C@@H]1SC(C)(C)[C@@H]2C(=O)O | PBP1a/1b (Bacillus subtilis) | > 2630 µM |
| C[C@@H](O)[C@H]1C(=O)N2C(C(=O)O)=C(S[C@@H]3CN[C@H](CNS(N)(=O)=O)C3)[C@H](C)[C@H]12 | PBP1a/1b (Bacillus subtilis) | > 2380 µM |
| CC1(C)S[C@@H]2[C@H](NC(=O)COc3ccccc3)C(=O)N2[C@H]1C(=O)O | PBP1a/1b (Bacillus subtilis) | < 0.0285 µM |
| CC1=C(C(=O)O)N2C(=O)[C@@H](NC(=O)[C@H](N)c3ccccc3)[C@H]2SC1 | PBP1a/1b (Bacillus subtilis) | > 2880 µM |
| CC1(C)S[C@@H]2[C@H](NC(=O)Cc3ccccc3)C(=O)N2[C@H]1C(=O)O | PBP1a/1b (Bacillus subtilis) | > 2990 µM |

###

test-system: UniProt P40750
Sequence (P40750 22-624): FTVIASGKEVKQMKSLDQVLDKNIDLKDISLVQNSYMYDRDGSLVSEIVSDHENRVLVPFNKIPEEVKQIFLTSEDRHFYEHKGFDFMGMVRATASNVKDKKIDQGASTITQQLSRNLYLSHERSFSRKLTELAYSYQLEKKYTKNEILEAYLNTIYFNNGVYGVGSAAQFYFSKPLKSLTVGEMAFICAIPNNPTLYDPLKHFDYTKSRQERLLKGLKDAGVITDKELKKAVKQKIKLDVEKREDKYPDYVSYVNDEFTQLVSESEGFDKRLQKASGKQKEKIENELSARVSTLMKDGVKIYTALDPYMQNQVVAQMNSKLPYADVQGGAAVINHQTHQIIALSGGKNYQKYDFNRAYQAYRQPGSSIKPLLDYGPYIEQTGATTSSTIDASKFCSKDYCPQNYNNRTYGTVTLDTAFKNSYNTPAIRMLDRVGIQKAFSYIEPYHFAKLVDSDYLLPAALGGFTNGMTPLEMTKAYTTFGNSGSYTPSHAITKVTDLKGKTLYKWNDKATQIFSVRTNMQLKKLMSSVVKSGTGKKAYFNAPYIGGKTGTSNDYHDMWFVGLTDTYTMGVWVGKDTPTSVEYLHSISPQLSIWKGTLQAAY
experiment: Fluorescent whole cell β-lactam titration with Boc-FL readout, SDS-PAGE
pIC50: −log10 of the molar value.
pIC50 values for the compounds below.
measured-attribute: pIC50

| molecular-string | measured-attribute | operator-symbol | readout-number |
| --- | --- | --- | --- |
| CO/N=C(\C(=O)N[C@@H]1C(=O)N2C(C(=O)O)=C(CSc3nc(=O)c(=O)[nH]n3C)CS[C@H]12)c1csc(N)n1 | pIC50 | = | 7.44 |
| CC1(C)S[C@@H]2[C@H](NC(=O)[C@H](N)c3ccc(O)cc3)C(=O)N2[C@H]1C(=O)O | pIC50 | = | 6.68 |
| CC1(C)S[C@@H]2[C@H](/N=C/N3CCCCCC3)C(=O)N2[C@H]1C(=O)O | pIC50 | < | 2.51 |
| C[C@@H](O)[C@H]1C(=O)N2C(C(=O)O)=C(S[C@@H]3CN[C@H](C(=O)N(C)C)C3)[C@H](C)[C@H]12 | pIC50 | ≤ | 2.58 |

###

test-system: PBP2a (Bacillus subtilis, UniProt P54488)
Sequence (P54488 whole entry): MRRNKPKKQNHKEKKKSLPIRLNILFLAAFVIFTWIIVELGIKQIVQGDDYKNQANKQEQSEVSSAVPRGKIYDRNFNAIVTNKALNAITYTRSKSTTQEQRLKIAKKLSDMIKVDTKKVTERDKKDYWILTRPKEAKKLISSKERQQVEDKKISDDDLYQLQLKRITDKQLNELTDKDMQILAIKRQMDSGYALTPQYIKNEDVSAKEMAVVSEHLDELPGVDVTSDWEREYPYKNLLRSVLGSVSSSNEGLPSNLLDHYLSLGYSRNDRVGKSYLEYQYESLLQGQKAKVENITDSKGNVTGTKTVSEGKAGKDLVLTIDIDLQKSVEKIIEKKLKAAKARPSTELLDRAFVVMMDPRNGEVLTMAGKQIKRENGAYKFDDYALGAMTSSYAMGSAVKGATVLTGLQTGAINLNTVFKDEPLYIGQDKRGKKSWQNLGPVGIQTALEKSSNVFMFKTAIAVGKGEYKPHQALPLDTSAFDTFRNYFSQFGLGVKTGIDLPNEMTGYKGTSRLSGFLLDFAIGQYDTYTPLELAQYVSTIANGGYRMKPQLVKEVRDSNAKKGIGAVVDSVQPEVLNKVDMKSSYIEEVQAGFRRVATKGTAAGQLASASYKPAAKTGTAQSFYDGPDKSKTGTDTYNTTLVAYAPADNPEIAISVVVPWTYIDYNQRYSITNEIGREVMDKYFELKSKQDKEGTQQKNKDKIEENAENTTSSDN
experiment: Fluorescent whole cell β-lactam titration with Boc-FL readout, SDS-PAGE
Format: cell-based
// classify(record): look up IC50 in ranges L = under 40 nM, M = from 40 nM up to 20000 nM, H = 20000 nM and over

| molecular-string | classification |
| --- | --- |
| CO/N=C(\C(=O)N[C@@H]1C(=O)N2C(C(=O)O)=C(CSc3nc(=O)c(=O)[nH]n3C)CS[C@H]12)c1csc(N)n1 | H |
| CO/N=C(\C(=O)N[C@@H]1C(=O)N2C(C(=O)O)=C(COC(N)=O)CS[C@H]12)c1ccco1 | H |
| CC(=O)OCC1=C(C(=O)O)N2C(=O)[C@@H](NC(=O)Cc3cccs3)[C@H]2SC1 | L |
| CC1(C)S[C@@H]2[C@H](NC(=O)[C@H](N)c3ccccc3)C(=O)N2[C@H]1C(=O)O | L |
| CCN1CCN(C(=O)N[C@@H](C(=O)N[C@@H]2C(=O)N3[C@@H]2SC(C)(C)[C@@H]3C(=O)O)c2ccccc2)C(=O)C1=O | M |
| Cc1onc(-c2ccccc2Cl)c1C(=O)N[C@@H]1C(=O)N2[C@@H]1SC(C)(C)[C@@H]2C(=O)O | M |
| C[C@@H](O)[C@H]1C(=O)N2C(C(=O)O)=C([C@H]3CCCO3)S[C@H]12 | L |
| CC1(C)S[C@@H]2[C@H](NC(=O)[C@H](N)c3ccc(O)cc3)C(=O)N2[C@H]1C(=O)O | M |
| CC1(C)S[C@@H]2[C@H](N)C(=O)N2[C@H]1C(=O)O | H |
| CC1(C)S[C@@H]2[C@H](NC(=O)COc3ccccc3)C(=O)N2[C@H]1C(=O)O | L |
| COc1cccc(OC)c1C(=O)N[C@@H]1C(=O)N2[C@@H]1SC(C)(C)[C@@H]2C(=O)O | L |
| NC(=O)c1cc[n+](CC2=C(C(=O)O)N3C(=O)[C@@H](NC(=O)[C@@H](c4ccccc4)S(=O)(=O)[O-])[C@H]3SC2)cc1 | H |
| CO[C@@]1(NC(=O)Cc2cccs2)C(=O)N2C(C(=O)O)=C(COC(N)=O)CS[C@@H]21 | M |
| CC1(C)S[C@@H]2[C@H](NC(=O)Cc3ccccc3)C(=O)N2[C@H]1C(=O)O | L |
| Cc1onc(-c2ccccc2)c1C(=O)N[C@@H]1C(=O)N2[C@@H]1SC(C)(C)[C@@H]2C(=O)O | M |
